Just for reference, patent US20230219906A1 is where these values come from.

Test system: MOLP-8 human multiple myeloma cell line
assay-text: Caspase-Glo 3/7 apoptosis induction assay in MOLP-8 cells
Assay type: cell-based
assay-context: Homo sapiens, MOLP-8, 2 h, caspase-3/7 activity, 2 hours at 37° C.; averaged over all runs on all batches; read-out: MOLP8 AC50
property-name: AC50 (nM)
Answer in nM, number only, no unit symbol.

| compound | AC50 / nM |
| --- | --- |
| COCCN1CCN(C(=O)[C@H]2/C(F)=C/C[C@H](C)[C@@H](C)S(=O)(=O)NC(=O)c3ccc4c(c3)N(C[C@@H]3CCCN32)C[C@@]2(CCCc3cc(Cl)ccc32)CO4)CC1 | 187 |

// AC50 lookup, compound = `C[C@@H]1CN(C(=O)[C@H]2/C(F)=C/C[C@H](C)[C@@H](C)S(=O)(=O)NC(=O)c3ccc4c(c3)N(C[C@@H]3CCCN32)C[C@@]2(CCCc3cc(Cl)ccc32)CO4)CCO1` , result: 71.3

get_value(item= C[C@@H]1[C@@H](C)C/C=C(\F)[C@H](C(=O)N2CCOC(C(F)(F)F)C2)N2CCC[C@H]2CN2C[C@@]3(CCCc4cc(Cl)ccc43)COc3ccc(cc32)C(=O)NS1(=O)=O (single isomer, unassigned) , readout=AC50) returns 193

Record summary for `COCCN(CCOC)C(=O)[C@H]1/C(F)=C/C[C@H](C)[C@@H](C)S(=O)(=O)NC(=O)c2cc3c(cc2F)OC[C@]2(CCCc4cc(Cl)ccc42)CN3C[C@@H]2CCCN21` : reported AC50 = 213

The reported AC50 of the compound `C[C@@H]1[C@@H](C)C/C=C(\F)[C@H](C(=O)N2CC3(CSC3)C2)N2CCC[C@H]2CN2C[C@@]3(CCCc4cc(Cl)ccc43)COc3ccc(cc32)C(=O)NS1(=O)=O` was 435

---

System: MOLP-8 human multiple myeloma cell line
assay-text: Caspase-Glo 3/7 apoptosis induction assay in MOLP-8 cells
Type: cell-based
assay-context: Homo sapiens, MOLP-8, 2 h, caspase-3/7 activity, 2 hours at 37° C.; averaged over all runs on all batches; read-out: MOLP8 AC50
Recorded AC50, one value per entry.

| molecule | AC50 |
| --- | --- |
| C[C@@H]1[C@@H](C)C/C=C(\F)[C@H](C(=O)N2CCN(C)CC2)N2CCC[C@H]2CN2C[C@@]3(CCCc4cc(Cl)ccc43)COc3ccc(cc32)C(=O)NS1(=O)=O [Compound 13] | 297 nM |
| C[C@@H]1[C@@H](C)C/C=C(\F)[C@H](C(=O)N(C)CCN2CCOCC2)N2CCC[C@H]2CN2C[C@@]3(CCOc4cc(Cl)ccc43)COc3ccc(cc32)C(=O)NS1(=O)=O [Compound 78] | 547 nM |
| C[C@@H]1[C@@H](C)C/C=C(\F)[C@H](C(=O)N(C)C2CCCOC2)N2CCC[C@H]2CN2C[C@@]3(CCCc4cc(Cl)ccc43)COc3ccc(cc32)C(=O)NS1(=O)=O (stereo partly drawn) [Compound 58] | 55.7 nM |
| C[C@@H]1[C@@H](C)C/C=C(\F)[C@H](C(=O)N(C)Cc2ccnn2C)N2CCC[C@H]2CN2C[C@@]3(CCCc4cc(Cl)ccc43)COc3ccc(cc32)C(=O)NS1(=O)=O [Compound 34] | 76.9 nM |
| C[C@@H]1[C@@H](C)C/C=C(\F)[C@H](C(=O)N2CCCC3(C2)CC3(F)F)N2CCC[C@H]2CN2C[C@@]3(CCCc4cc(Cl)ccc43)COc3ccc(cc32)C(=O)NS1(=O)=O (stereo partly drawn) [Compound 29] | 408 nM |

Form: item COCCN1CCC(CN(C)C(=O)[C@H]2/C(F)=C/C[C@H](C)[C@@H](C)S(=O)(=O)NC(=O)c3ccc4c(c3)N(C[C@@H]3CCCN32)C[C@@]2(CCCc3cc(Cl)ccc32)CO4)CC1 [Compound 85] ; test system MOLP-8 human multiple myeloma cell line; AC50: 759 nM

Readout AC50 for C[C@@H]1[C@@H](C)C/C=C(\F)[C@H](C(=O)N2CCC(CC#N)CC2)N2CCC[C@H]2CN2C[C@@]3(CCCc4cc(Cl)ccc43)COc3ccc(cc32)C(=O)NS1(=O)=O [Compound 46] , test system MOLP-8 human multiple myeloma cell line, was 329 nM

Reported AC50 (MOLP-8 human multiple myeloma cell line) for entry C[C@@H]1[C@@H](C)C/C=C(\F)[C@H](C(=O)N2CCCC3(CC3)C2)N2CCC[C@H]2CN2C[C@@]3(CCCc4cc(Cl)ccc43)COc3ccc(cc32)C(=O)NS1(=O)=O (single isomer, unassigned) [Compound 16] is 446 nM
